# TEST PROTOCOL: Hemolytic test
# Format: cell-based, rat
# DETAILS: rat erythrocytes (washed red blood cells), pH 7.4; rat erythrocytes, 1 hr at 37° C.; read-out: LC50 (hemolytic activity), unit inferred
Ends that are not written are not given here.
Collected CC50 at 1 hr values appear next to each entry.

// worked examples, CC50 at 1 hr included
FLKGIVGKLGKLF-NH2 [[K^3,K^8]temporin-SHa, F-L-K-G-I-V-G-K-L-G-K-L-F]: > 500 µM
FLKGIKGMLGKLF-NH2 [[K^3,K^6]temporin-SHa, F-L-K-G-I-K-G-M-L-G-K-L-F]: > 500 µM

Shift focus to the following entry.
In: Given the entry FLKGIVGKLGKLL-NH2 [[K^3, K^8,L^13]temporin-SHa, F-L-K-G-I-V-G-K-L-G-K-L-L] , report its measured CC50 at 1 hr.
Out: > 500 µM

---

# Test system: rat erythrocytes
# TEST PROTOCOL: Hemolytic test
# Assay type: cell-based
# DETAILS: rat erythrocytes; result in words
Ends that are not written are not given here.
MEASUREMENT NAME: hemolytic activity (in words)

FLKGIVGKLGKLL-NH2 [[K^3, K^8,L^13]temporin-SHa, F-L-K-G-I-V-G-K-L-G-K-L-L]: no hemolytic activity
FLKGIVGKLGKLF-NH2 [[K^3,K^8]temporin-SHa, F-L-K-G-I-V-G-K-L-G-K-L-F]: no hemolytic activity
FLKGIKGMLGKLF-NH2 [[K^3,K^6]temporin-SHa, F-L-K-G-I-K-G-M-L-G-K-L-F]: no hemolytic activity

Each recorded value in this set is attributed to patent US9932376B2.
